Tested on: Vero E6
Protocol Notes: drug sensitivity score (DSS) for viability; higher = more toxic; extreme values may be limits of the assay
Test Parameters: 72 h
Assay Endpoint: drug sensitivity score
Respond using a number only.

The examples below pair each entry with its known result.
1) C[C@@H]1C[C@H]2[C@@H]3CCC4=CC(=O)C=C[C@]4(C)[C@@]3(Cl)[C@@H](O)C[C@]2(C)[C@@]1(OC(=O)c1ccco1)C(=O)CCl [MOMETASONE FUROATE] : 0
2) NC(=O)[C@@H]1CC[C@@H]2CN1C(=O)N2OS(=O)(=O)O : 0
3) CC#CCn1c(N2CCC[C@@H](N)C2)nc2c1c(=O)n(Cc1nc(C)c3ccccc3n1)c(=O)n2C : 0
4) CC(=O)NCCNc1cc(Cl)nn2c(-c3cccc(S(=O)(=O)N(C)C)c3)c(C)nc12 : 0
5) COC(=O)CC[C@@H]1N=C(c2ccccn2)c2cc(Br)ccc2-n2c(C)cnc21 : 0

Record request: drug sensitivity score value, item C=C1/C(=C\C=C2/CCC[C@]3(C)[C@@H]([C@H](C)/C=C/[C@H](C)C(C)(C)O)CC[C@@H]23)C[C@@H](O)C[C@@H]1O
0

Input Cc1cc(C)cc(C(=O)O[C@H]2C[C@H]3CC[C@@H](C2)N3C)c1 [tropanyl-3,5-dimethylbenzoate]
0

Input CC(C)(C)CCN1C[C@@H]2[C@@H](CNC(=O)c3cc(Cl)cc(Cl)c3)[C@@H]2C1
0

Input CC(=O)c1c(C)c2cnc(Nc3ccc(N4CCNCC4)cn3)nc2n(C2CCCC2)c1=O
7.2

Input CCn1c(=O)/c(=C2\Sc3ccccc3N2C)s/c1=C\c1cccc[n+]1CC
0.9

Input O=C1O[C@H]([C@@H](O)CO)C(O)=C1O
0

Input CC(C)=CCC[C@](C)(O)[C@H]1CC[C@]2(C)[C@@H]1[C@H](O)C[C@@H]1[C@@]3(C)CC[C@H](O)C(C)(C)[C@@H]3CC[C@]12C
0

----------
Test system: Caco-2
Protocol Notes: cell viability relative to DMSO; higher = less toxic
Test Parameters: 72 h; 10000 nM
Assay Endpoint: cell viability (%)
Please reply with the bare figure in % and do not write the unit itself.

1) CCCC[C@H]1C(=O)N(c2ccccc2)N(c2ccc(O)cc2)C1=O : 44.2
2) OCc1ccc(-c2nn(Cc3ccccc3)c3ccccc23)o1 : 97.4
3) Cc1ccc(S(=O)(=O)Cc2nc(-c3ccc(C(=O)NCc4cccnc4)cc3)oc2C)cc1 : 16.6
4) C[C@@H]1C[C@H]2[C@@H]3CCC4=CC(=O)C=C[C@]4(C)[C@@]3(Cl)[C@@H](O)C[C@]2(C)[C@@]1(OC(=O)c1ccco1)C(=O)CCl [MOMETASONE FUROATE] : 83.1
5) CC(=O)c1c(C)c2cnc(Nc3ccc(N4CCNCC4)cn3)nc2n(C2CCCC2)c1=O : 50.4
6) O=C(Nc1cccc2cccnc12)c1ccc(N2C(=O)[C@@H]3[C@H](C2=O)[C@@H]2C=C[C@H]3C2)cc1 [endo-IWR-1] : 94.2

Any idea what cell viability came out for OCCn1cc(-c2cnc3nnn(Cc4ccc5ncccc5c4)c3n2)cn1 on Caco-2?
79.2

Input CC(O)c1cc(C(=O)N[C@@H](C)Cn2ccc(-c3ccc(C#N)c(Cl)c3)n2)n[nH]1 (stereo not given in full)
103

Input CCN(CC)C(=O)N[C@H]1C[C@@H]2c3cccc4[nH]cc(c34)C[C@H]2N(C)C1 [terguride]
99.5

Input Nc1ncnc2c1ncn2[C@H]1O[C@@H](C(=O)N2CCN(CC(=O)Nc3cccc4c3CNC4=O)CC2)[C@H](O)[C@@H]1O
92.6

----------
Entries and their cell viability
Test system: Caco-2
Protocol Notes: cell viability relative to DMSO; higher = less toxic
Test Parameters: 72 h; 1000 nM
Form entry: enter the amount, then its unit.

The examples below pair each entry with its known result.
1) Brc1c(NC2=NCCN2)ccc2nccnc12 [brimonidine] : 90.7%
2) O=C(O)/C=C(/CC(=O)O)C(=O)O [cis-aconitic-acid] : 90%
3) CNC(=O)c1cc2c(cn1)[nH]c1ccccc12 [FG-7142] : 89.8%
4) CCn1cc(C(=O)O)c(=O)c2ccc(C)nc21 [nalidixic-acid] : 99.9%

Any idea what cell viability came out for CC(=O)Oc1ccccc1C(=O)Oc1ccccc1C(=O)O [acetylsalicylsalicylic-acid] on Caco-2?
101%

Input CC#CCn1c(N2CCC[C@@H](N)C2)nc2c1c(=O)n(Cc1nc(C)c3ccccc3n1)c(=O)n2C [linagliptin]
91.4%

----------
Entries and their cell viability
Tested on: HepG2
Protocol Notes: cell viability relative to DMSO; higher = less toxic
Test Parameters: 72 h; 1 nM
Please reply with the bare figure in % and do not write the unit itself.

The examples below pair each entry with its known result.
1) COC(=O)[C@@H](N)CCCNC(=N)N[N+](=O)[O-] : 97.4
2) O=S(=O)(O)c1ccc(-c2c3nc(c(-c4ccc(S(=O)(=O)O)cc4)c4ccc([nH]4)c(-c4ccc(S(=O)(=O)O)cc4)c4nc(c(-c5ccc(S(=O)(=O)O)cc5)c5ccc2[nH]5)C=C4)C=C3)cc1 : 100
3) O=C(c1ccc(/C=C/c2n[nH]c3ccccc23)cc1)N1CCNCC1 : 102
4) O=S(=O)(O)NC1CCCCC1 : 112
5) COc1ccc(NS(=O)(=O)c2ccc(I)cc2)cc1N1CCN(C)CC1 : 108

Record request: cell viability value, item NC(N)=O
82.1

Input Nc1cc(C(Cl)=C(Cl)Cl)c(S(N)(=O)=O)cc1S(N)(=O)=O
100

----------
Test system: Calu-3
Protocol Notes: cell viability relative to DMSO; higher = less toxic
Test Parameters: 72 h; 100 nM
Assay Endpoint: cell viability (%)
Please reply with the bare figure in % and do not write the unit itself.

1) COC(=O)CC[C@@H]1N=C(c2ccccn2)c2cc(Br)ccc2-n2c(C)cnc21 : 111
2) C[n+]1ccccc1C=NO : 93.8
3) CC(C)C[C@H](NC(=O)CNC(=O)c1cc(Cl)ccc1Cl)B1OC(=O)C(CC(=O)O)(CC(=O)O)O1 : 19.6
4) Cc1cc(Oc2ccc3nc(COc4ccc(CC5SC(=O)NC5=O)cc4)n(C)c3c2)cc(C)c1N (stereo not drawn) : 104
5) COc1cc([C@@H]2c3cc4c(cc3[C@@H](O[C@@H]3O[C@@H]5CO[C@@H](C)O[C@H]5[C@H](O)[C@H]3O)[C@H]3COC(=O)[C@H]23)OCO4)cc(OC)c1O [etoposide] : 90.4

Record request: cell viability value, item Cc1ccccc1N1CCN(CCc2nnc3n2CCCC3)CC1
92.9

Input Nc1nc(N)c2nc(-c3cccc(O)c3)cnc2n1
103

Input CC(C)NCC(O)c1ccc([N+](=O)[O-])cc1 (stereo not drawn)
103

----------
Entries and their cell viability
Tested on: HepG2
Protocol Notes: cell viability relative to DMSO; higher = less toxic
Test Parameters: 72 h; 100 nM
Please reply with the bare figure in % and do not write the unit itself.

1. COc1ccc(S(=O)(=O)Nc2c(C)cc(C)cc2C)cc1 : 105
2. CC(=O)c1c(C)c2cnc(Nc3ccc(N4CCNCC4)cn3)nc2n(C2CCCC2)c1=O [palbociclib] : 80.7
3. O=C(Nc1cccc2cccnc12)c1ccc(N2C(=O)[C@@H]3[C@H](C2=O)[C@@H]2C=C[C@H]3C2)cc1 [endo-IWR-1] : 98.5

Record request: cell viability value, item CC(C)[C@@]1(NC(=O)[C@@H]2C[C@@H]3c4cccc5[nH]cc(c45)C[C@H]3N(C)C2)O[C@@]2(O)[C@@H]3CCCN3C(=O)[C@H](Cc3ccccc3)N2C1=O [dihydroergocristine]
95.8

Input COc1ccc(CCC(=O)c2c(O)cc(O[C@@H]3O[C@H](CO)[C@@H](O)[C@H](O)[C@H]3O[C@@H]3O[C@@H](C)[C@H](O)[C@@H](O)[C@H]3O)cc2O)cc1O [Neohesperidin dihydrochalcone (Nhdc)]
108

Input CC(C)(C)c1ccc(S(=O)(=O)Nc2ccc(Cl)cc2C(=O)c2cc[n+]([O-])cc2)cc1 [vercirnon]
104

Input NC(=O)c1nc(F)cnc1O [Favipiravir]
109

Input CC(=O)NCCNc1cc(Cl)nn2c(-c3cccc(S(=O)(=O)N(C)C)c3)c(C)nc12 [MI-14]
87.4

Input CC1C(=O)OC2C(O)C34C5CC(C(C)(C)C)C36C(OC(=O)C6O)OC4(C(=O)O5)C12O (configuration not stated) [ginkgolide-B]
99

Input Cn1nc(-c2cccc(F)c2)n(C)c1=S [suritozole]
98.2

Input Nc1ccn([C@@H]2O[C@H](CO)[C@@H](O)C2(F)F)c(=O)n1 [gemcitabine]
38.3

----------
Entries and their drug sensitivity score
Tested on: Vero E6
Protocol Notes: drug sensitivity score (DSS) for viability; higher = more toxic; extreme values may be limits of the assay
Test Parameters: 72 h
Respond using a number only.

1. Cc1ccc(NC2=CC(=O)c3sc(C)nc3C2=O)cc1 : 5.2
2. COc1ccc(NS(=O)(=O)c2ccc(I)cc2)cc1N1CCN(C)CC1 : 0
3. C[C@@H]1CC(=O)NN=C1c1ccc(NN=C(C#N)C#N)cc1 : 0
4. Cc1ccc(S(=O)(=O)Cc2nc(-c3ccc(C(=O)NCc4cccnc4)cc3)oc2C)cc1 : 29.2

Record request: drug sensitivity score value, item CC(/C=C1\SC(=S)N(CC(=O)O)C1=O)=C\c1ccccc1
0

Where do the numbers come from? From the supplement of paper PMC13380429.
